Measured Bliss excess by item
Test system: WM-115 (Melanoma)
assay: Bliss excess, mean over the matrix (fraction); higher = more synergy
Just the number, please.

Observe how each entry below is paired with its result.
compound	Bliss excess
Cc1cc2ncnn2cc1Nc1ncc2c(n1)n(C1CCOCC1)c(=O)n2C [AZD7648] + COc1cc([C@@H]2c3cc4c(cc3[C@@H](O[C@@H]3O[C@@H]5CO[C@@H](C)O[C@H]5[C@H](O)[C@H]3O)[C@H]3COC(=O)[C@H]23)OCO4)cc(OC)c1O [Etoposide] (first compound max 10 µM, 7x7, partner max 10 µM)	0.0071
COc1cccc(OCCCN)c1-c1cc(Nc2cnc(C#N)cn2)n[nH]1 [Prexasertib] + C=CCn1c(=O)c2cnc(Nc3ccc(N4CCN(C)CC4)cc3)nc2n1-c1cccc(C(C)(C)O)n1 [AZD1775] (first compound max 1 µM, partner max 1 µM)	0.0354

Kindly consider the entry below.
Challenge: Field request: Bliss excess | item: Cn1cnc2c(F)c(Nc3ccc(Br)cc3Cl)c(C(=O)NOCCO)cc21 [Selumetinib] + CCN(CCO)CCCOc1ccc2c(Nc3cc(CC(=O)Nc4cccc(F)c4)[nH]n3)ncnc2c1 [AZD2811] (first compound max 10 µM, 7x7, partner max 1 µM)
Response given: -0.042

----------
Tested on: MEL-JUSO (Melanoma)
assay: Bliss excess, mean over the matrix (fraction); higher = more synergy
Measured Bliss excess by item
Just the number, please.

compound	property.label	test.value
COc1cccc(OCCCN)c1-c1cc(Nc2cnc(C#N)cn2)n[nH]1 [Prexasertib] + CN(C)CCCOc1ccc(-c2ccc3ncc4c(c3c2)n(C2CCOCC2)c(=O)n4C)cn1 [AZD0156] (first compound max 1 µM, 7x7, partner max 1 µM)	Bliss excess	0.0301
CCc1c2c(nc3ccc(O)cc13)-c1cc3c(c(=O)n1C2)COC(=O)[C@]3(O)CC [SN-38] + CN(C)CCCOc1ccc(-c2ccc3ncc4c(c3c2)n(C2CCOCC2)c(=O)n4C)cn1 [AZD0156] (first compound max 0.3 µM, 7x7, partner max 1 µM)	Bliss excess	0.0265

Challenge: Field request: Bliss excess | item: COc1nnc2ccc(N3CCC(c4ccc(OCCN5CCN(C)C(=O)[C@H]5C)cc4)CC3)nn12 [AZD5153] + C=CCn1c(=O)c2cnc(Nc3ccc(N4CCN(C)CC4)cc3)nc2n1-c1cccc(C(C)(C)O)n1 [AZD1775] (first compound max 1 µM, partner max 1 µM)
Response given: 0.0131

----------
System: L-540 (Hodgkin's Lymphoma)
assay: combination Emax (second highest fraction inhibited in the dose matrix, 72 h); higher = more inhibition; extreme values may be limits of the assay
Measured combination Emax by item
Just the number, please.

Observe how each entry below is paired with its result.
compound	combination Emax
CC1(C)CCC(CN2CCN(c3ccc(C(=O)NS(=O)(=O)c4ccc(NCC5CCOCC5)c([N+](=O)[O-])c4)c(Oc4cnc5[nH]ccc5c4)c3)CC2)=C(c2ccc(Cl)cc2)C1 [Venetoclax] + Cc1cc2ncnn2cc1Nc1ncc2c(n1)n(C1CCOCC1)c(=O)n2C [AZD7648] (first compound max 1 µM, 7x7, partner max 10 µM)	0.787
CC1(C)CCC(CN2CCN(c3ccc(C(=O)NS(=O)(=O)c4ccc(NCC5CCOCC5)c([N+](=O)[O-])c4)c(Oc4cnc5[nH]ccc5c4)c3)CC2)=C(c2ccc(Cl)cc2)C1 [Venetoclax] + C1CN(CCC1(C(=O)N[C@@H](CCO)C2=CC=C(C=C2)Cl)N)C3=NC=NC4=C3C=CN4 [Capivasertib] (first compound max 1 µM, 7x7, partner max 3 µM)	0.638
CC1(C)CCC(CN2CCN(c3ccc(C(=O)NS(=O)(=O)c4ccc(NCC5CCOCC5)c([N+](=O)[O-])c4)c(Oc4cnc5[nH]ccc5c4)c3)CC2)=C(c2ccc(Cl)cc2)C1 [Venetoclax] + C=CCn1c(=O)c2cnc(Nc3ccc(N4CCN(C)CC4)cc3)nc2n1-c1cccc(C(C)(C)O)n1 [AZD1775] (first compound max 1 µM, partner max 1 µM)	0.957
CN(CCO)CC[C@H](CSc1ccccc1)Nc1ccc(S(=O)(=O)NC(=O)c2ccc(N3CCC([C@@H](O)c4ccccc4-c4ccc(Cl)cc4)CC3)cc2)cc1S(=O)(=O)C(F)(F)F [AZD4320] + Nc1ccn([C@@H]2O[C@H](CO)[C@@H](O)C2(F)F)c(=O)n1 [Gemcitabine] (first compound max 1 µM, 7x7, partner max 0.3 µM)	0.951
Cc1c2c(nn1C)CSCc1cc(n(C)n1)CSc1cc(c3ccccc3c1)OCCCc1c(C(=O)O)n(C)c3c-2c(Cl)ccc13 [AZD5991] + Cc1cc2ncnn2cc1Nc1ncc2c(n1)n(C1CCOCC1)c(=O)n2C [AZD7648] (first compound max 1 µM, 7x7, partner max 10 µM)	1

Challenge: L-540 (Hodgkin's Lymphoma) / combination Emax / CC1(C)CCC(CN2CCN(c3ccc(C(=O)NS(=O)(=O)c4ccc(NCC5CCOCC5)c([N+](=O)[O-])c4)c(Oc4cnc5[nH]ccc5c4)c3)CC2)=C(c2ccc(Cl)cc2)C1 [Venetoclax] + C[C@@H](Nc1cc(F)cc(F)c1)c1cc(C(=O)N(C)C)cc2c(=O)cc(N3CCOCC3)oc12 [AZD8186] (first compound max 1 µM, 7x7, partner max 3 µM) : value?
Response given: 0.661

Challenge: Do the same for C=CCn1c(=O)c2cnc(Nc3ccc(N4CCN(C)CC4)cc3)nc2n1-c1cccc(C(C)(C)O)n1 [AZD1775] + C[C@@H]1COCCN1C2=NC(=NC(=C2)C3(CC3)[S@](=N)(=O)C)C4=C5C=CNC5=NC=C4 [AZD6738] (first compound max 1 µM, partner max 10 µM) please
Response given: 0.941

Challenge: Do the same for CC(=O)c1c(C)c2cnc(Nc3ccc(N4CCNCC4)cn3)nc2n(C2CCCC2)c1=O [Palbociclib] + Cn1cnc2c(F)c(Nc3ccc(Br)cc3Cl)c(C(=O)NOCCO)cc21 [Selumetinib] (first compound max 10 µM, 7x7, partner max 10 µM) please
Response given: 0.25
